Tested on: OVCAR-4 ovarian
ASSAY EXPLANATION: NCI tumour cell line growth inhibition, 48 h
GI50 listing for selected molecules.
EXPERIMENTAL ENDPOINT: GI50

CSc1ccc(SC2c3ccc(C)cc3Oc3nc(N)c(C#N)c(N)c32)cc1 (stereo not drawn) ... 1.59 µM
COc1cc2c3c(n(CCCBr)c(=O)c2cc1OC)-c1ccc(F)cc1C3=O ... 40 µM
CN(C)CCCCn1ccc2c1C(=O)c1c(c(O)c3ccccc3c1O)C2=O ... 19.6 µM

====

TGI listing for selected compounds.
Test system: OVCAR-4 ovarian
ASSAY EXPLANATION: NCI tumour cell line growth inhibition, 48 h
EXPERIMENTAL ENDPOINT: TGI

CC(C)C(=O)[O-].CC(C)C(=O)[O-].N.N.N.N.[Co+3].[O-][Cl+3]([O-])([O-])[O-] ... > 100 µM
CC12CCC(C(=Nc3cc(C(F)(F)F)cc(C(F)(F)F)c3)C1=O)C2(C)C (stereo not drawn) ... > 100 µM
COc1ccc(-c2ccc(-c3ccc(C(=N)N)cn3)o2)cc1Cl ... 7.75 µM
Clc1ccc(CNc2nccc(-c3cnn4ncccc34)n2)cc1 ... > 25 µM
C[C@@H](COCCC(=O)N1CCN(c2ncc(C(F)(F)F)cn2)CC1)Nc1cn[nH]c(=O)c1C(F)(F)F ... > 100 µM
Nc1c(C(=O)N/N=C/c2ccc(-c3cc(Cl)c(Cl)cc3Cl)o2)cnn1-c1ccnc2c(C(F)(F)F)cccc12 ... 9.4 µM
CC(=O)OC(C)c1cc2c(s1)C(=O)c1c(C(C)OC(C)=O)csc1C2=O (stereo not drawn) ... 2.75 µM
COC12C=CC(C=C1C#N)CC2 (stereo not drawn) (tested in a mixture with another compound) ... > 100 µM
CC(=O)OCCCCn1cc(Cn2ccc(=O)n(Cc3cn(CCCCOC(C)=O)nn3)c2=O)nn1 ... > 100 µM
Nc1ccc2ccc(-c3ccc[nH]3)nc2n1 ... > 100 µM
CC1[C@@H]2CC=C3[C@H]4CCC5Cc6nc7c(nc6C[C@@]5(C)C4(O)CC(=O)[C@]32CO[C@]12OC(C)(C)CC2O)CC1CC[C@@H]2C3=C[C@H]4O[C@@]5(O[C@@](C)(CO)C[C@@H]5O)C(C)[C@@]4(O)[C@]3(C)[C@@H](O)CC2[C@]1(C)C7 (stereo partly drawn) ... > 3.6 µM
CS/C(c1ccccc1)=[N+](\[O-])Cc1ccccc1 ... > 100 µM
COCC12CCC(OC)C34C5CC6(O)C(OC)CC(OC(C)=O)(C5C6OC(=O)c5ccccc5)C(C(OC)C13)C4N(C)C2 (stereo not drawn) ... > 100 µM
COc1ccc2c(CCNC(=O)/C=C/c3ccccc3)c(C(C)=O)[nH]c2c1[N+](=O)[O-] ... > 100 µM
CCC1(NC(=O)c2cc(F)c(F)c(F)c2F)C(=O)NC(=O)N(C(C)C)C1=O (stereo not drawn) ... > 100 µM
C=Cc1nc(C#N)c(N)o1 ... > 100 µM
COc1ccccc1C1(C)SCc2nc3ccccc3n21 (stereo not drawn) ... > 10 µM
O=C(O)CCc1ccc2c(c1)CC1(Cc3ccccc3C1)C2 ... > 100 µM
COc1c(Cl)ccc2c(-c3nc4cc(Cl)c(F)cc4s3)cc(=O)oc12 ... 70.6 µM
CN(C)CCCCn1ccc2c1C(=O)c1c(c(O)c3ccccc3c1O)C2=O ... 43.1 µM
CCN(CC)c1ccc(N=C2C=C(Cl)C(=O)c3ncccc32)c(C)c1 ... 18.3 µM
Nc1nc(=O)n(C2OC(CO)C(O)C2O)c2ncc(-c3ccc(-c4ccccc4)cc3)nc12 (stereo not drawn) ... > 100 µM
COc1ccc(C2SCC(=O)N2NC(=O)C(C)Oc2ccccc2C)cc1 (stereo not drawn) ... > 100 µM
O=C(CSc1nnc(-c2ccc(N=Cc3ccc(Cl)cc3)cc2)o1)Nc1ccc([N+](=O)[O-])cc1 ... 84.9 µM
O=C1c2ccccc2-c2c1c1ccc([N+](=O)[O-])cc1c(=O)n2CCCNCCO ... 2.77 µM
CN(Cc1cnc2nc(N)nc(N)c2n1)c1ccc(C(=O)NC(CCC(=O)NC(CC(P(=O)(O)O)P(=O)(O)O)C(=O)O)C(=O)O)cc1 (stereo not drawn) ... > 100 µM
COc1ccc2[nH]c(C(=O)N3CC(CCl)c4c3cc(N)c3ccccc43)cc2c1 (stereo not drawn) ... < 0.01 µM
NCCCN1CCN(CCCNc2nc3ccccc3c3[nH]c4ccccc4c23)CC1 ... 1.77 µM

Origin of values: PubChem BioAssay (NCI)
